# Lookup of reported pIC50 keyed by entry
target-or-test-system: Human CDK12 wt/CycK (Homo sapiens (Human))
Sequence (Q9NYV4 whole entry): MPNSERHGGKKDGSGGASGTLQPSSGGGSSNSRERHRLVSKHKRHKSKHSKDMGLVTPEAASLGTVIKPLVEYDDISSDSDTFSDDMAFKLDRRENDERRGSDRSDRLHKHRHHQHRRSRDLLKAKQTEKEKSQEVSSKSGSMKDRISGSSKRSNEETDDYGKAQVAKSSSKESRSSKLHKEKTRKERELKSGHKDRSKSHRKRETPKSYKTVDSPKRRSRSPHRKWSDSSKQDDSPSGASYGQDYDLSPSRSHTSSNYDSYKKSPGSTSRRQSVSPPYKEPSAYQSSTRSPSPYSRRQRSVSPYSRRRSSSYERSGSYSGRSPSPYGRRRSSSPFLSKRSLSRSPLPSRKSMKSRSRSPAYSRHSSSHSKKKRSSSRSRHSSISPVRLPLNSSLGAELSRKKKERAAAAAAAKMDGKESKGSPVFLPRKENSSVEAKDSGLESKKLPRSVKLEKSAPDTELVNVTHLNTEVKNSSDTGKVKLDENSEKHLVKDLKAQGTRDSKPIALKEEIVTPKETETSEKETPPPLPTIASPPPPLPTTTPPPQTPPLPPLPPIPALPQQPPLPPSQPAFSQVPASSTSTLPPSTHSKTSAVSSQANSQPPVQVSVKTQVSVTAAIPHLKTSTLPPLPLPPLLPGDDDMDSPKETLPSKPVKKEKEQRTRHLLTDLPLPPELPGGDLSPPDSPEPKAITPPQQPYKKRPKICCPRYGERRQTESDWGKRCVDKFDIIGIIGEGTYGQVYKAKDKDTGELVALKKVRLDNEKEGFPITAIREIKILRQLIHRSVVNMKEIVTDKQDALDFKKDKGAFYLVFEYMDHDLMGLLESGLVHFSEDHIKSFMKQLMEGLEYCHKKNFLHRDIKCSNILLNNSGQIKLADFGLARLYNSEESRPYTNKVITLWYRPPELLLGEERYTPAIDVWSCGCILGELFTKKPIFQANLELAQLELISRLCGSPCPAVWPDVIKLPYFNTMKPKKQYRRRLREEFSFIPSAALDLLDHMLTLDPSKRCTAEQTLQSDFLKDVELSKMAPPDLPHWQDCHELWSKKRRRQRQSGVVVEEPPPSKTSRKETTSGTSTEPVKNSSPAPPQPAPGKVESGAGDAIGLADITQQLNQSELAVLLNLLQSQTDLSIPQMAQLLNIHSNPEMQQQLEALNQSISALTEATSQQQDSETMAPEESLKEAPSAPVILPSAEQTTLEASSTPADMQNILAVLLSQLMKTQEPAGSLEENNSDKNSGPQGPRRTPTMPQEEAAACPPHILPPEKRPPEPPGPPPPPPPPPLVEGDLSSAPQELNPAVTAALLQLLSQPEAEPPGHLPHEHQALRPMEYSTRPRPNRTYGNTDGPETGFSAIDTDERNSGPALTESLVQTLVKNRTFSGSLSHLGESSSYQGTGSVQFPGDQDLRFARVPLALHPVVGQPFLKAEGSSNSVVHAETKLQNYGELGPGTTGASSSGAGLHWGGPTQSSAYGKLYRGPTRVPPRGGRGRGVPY
Sequence (O75909 whole entry partner): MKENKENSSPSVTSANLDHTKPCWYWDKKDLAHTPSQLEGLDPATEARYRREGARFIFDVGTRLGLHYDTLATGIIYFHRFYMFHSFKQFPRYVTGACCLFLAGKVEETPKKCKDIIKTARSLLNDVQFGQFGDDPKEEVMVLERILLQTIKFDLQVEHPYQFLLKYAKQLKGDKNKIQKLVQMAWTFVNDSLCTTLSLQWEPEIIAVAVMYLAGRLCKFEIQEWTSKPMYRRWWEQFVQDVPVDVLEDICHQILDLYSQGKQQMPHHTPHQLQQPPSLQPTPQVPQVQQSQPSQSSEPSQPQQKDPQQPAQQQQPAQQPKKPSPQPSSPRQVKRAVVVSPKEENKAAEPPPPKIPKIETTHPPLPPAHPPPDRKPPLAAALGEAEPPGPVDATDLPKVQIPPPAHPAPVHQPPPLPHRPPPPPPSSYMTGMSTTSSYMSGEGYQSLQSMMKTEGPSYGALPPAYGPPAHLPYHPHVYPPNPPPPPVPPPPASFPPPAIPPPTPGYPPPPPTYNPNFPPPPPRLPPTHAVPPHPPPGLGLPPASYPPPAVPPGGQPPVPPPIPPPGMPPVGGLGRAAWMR
experimental-protocol: Radiometric protein kinase assay (33PanQinase Activity Assay), CDK12
Type: biochemical
protocol-conditions: ATP 0.3 μM; read-out: CDK12 IC50
Experimental: A radiometric protein kinase assay (^33PanQinase® Activity Assay) was used for measuring the kinase activity of the two protein kinases (CDK12/CDK7). All kinase assays were performed in 96-well FlashPlates™ from PerkinElmer (Boston, MA, USA) in a 50 μL reaction volume. […] The reaction mixture was incubated at 30° C. for 60 min and then stopped by the addition of 2% (v/v) H3PO4. […] Incorporation of ^33Pi was determined with a microplate scintillation count (Microbeta, Wallac). […]
pIC50: −log10 of the molar value.
quantity-name: pIC50

INSERT INTO results (structure_notation, quantity_name, observed_result) VALUES
  ('CC(C)c1cnn2c(NCc3ccc(-c4ccccc4)cc3)cc(NC[C@H]3CCNC[C@@H]3O)nc12', 'pIC50', 6.84),
  ('O[C@H]1CNCC[C@@H]1CNc1cc(NCc2ccc(-c3ccc(F)cn3)cc2)n2ncc(C3CC3)c2n1', 'pIC50', 7.15),
  ('COc1cccnc1-c1ccc(CNc2cc(NC[C@H]3CCNC[C@@H]3O)nc3c(C4CC4)cnn23)cc1', 'pIC50', 6.79),
  ('O[C@H]1CNCC[C@@H]1CNc1cc(NCc2cn(-c3ccccn3)cn2)n2ncc(C3CC3)c2n1', 'pIC50', 7.11),
  ('C1=C(c2cc(NCc3ccc(-c4ccccn4)cc3)n3ncc(C4CC4)c3n2)CNCC1', 'pIC50', 7.22),
  ('c1ccc(-c2ccc(CNc3cc(N[C@H]4CCCNC4)nc4c(C5CC5)cnn34)cc2)nc1', 'pIC50', 7.29),
  ('O[C@H]1CNCC[C@@H]1CNc1cc(NCc2ccc(-c3ccccn3)cc2F)n2ncc(C3CC3)c2n1', 'pIC50', 7.00),
  ('N#Cc1cnn2c(NCc3ccc(-c4ccccc4)cc3)cc(N[C@H]3CCNC3)nc12', 'pIC50', 7.64);
